Below, each entry is listed alongside its reported binding activity, % of wild type.
Target: PD-1 (UniProt Q15116 25-167, limits assumed)
Sequence (Q15116 25-167 limits assumed): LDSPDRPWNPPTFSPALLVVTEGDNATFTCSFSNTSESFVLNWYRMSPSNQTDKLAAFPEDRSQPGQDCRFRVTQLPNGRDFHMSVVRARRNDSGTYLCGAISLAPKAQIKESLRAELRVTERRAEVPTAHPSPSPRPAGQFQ
Experiment: ELISA; S9 on the Cys
Quick note: give the figure in %, leave out the unit.

Check out these entries, answers already filled in.
anti-PD-1 antibody 2 HC Ser25Cys (antibody, human IgG4 S228P, kappa, V domains shown, arm on Cys25 as named in each row) VH: QVQLVESGGGVVQPGRSLRLDCKACGITFSNSGMHWVRQAPGKGLEWVAVIWYDGSKRYYADSVKGRFTISRDNSKNTLFLQMNSLRAEDTAVYYCATNDDYWGQGTLVTVSS VL: EIVLTQSPATLSLSPGERATLSCRASQSVSSYLAWYQQKPGQAPRLLIYDASNRATGIPARFSGSGSGTDFTLTISSLEPEDFAVYYCQQSSNWPRTFGQGTKVEIKR ... 48.7
anti-PD-1 antibody 2 HC Ser75Cys (antibody, human IgG4 S228P, kappa, V domains shown, arm on Cys75 as named in each row) VH: QVQLVESGGGVVQPGRSLRLDCKASGITFSNSGMHWVRQAPGKGLEWVAVIWYDGSKRYYADSVKGRFTISRDNCKNTLFLQMNSLRAEDTAVYYCATNDDYWGQGTLVTVSS VL: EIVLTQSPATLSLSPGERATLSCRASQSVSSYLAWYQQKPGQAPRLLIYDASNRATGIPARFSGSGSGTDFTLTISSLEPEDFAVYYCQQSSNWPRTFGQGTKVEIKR ... 38.7

Let's switch to this binder now.
**Query** // lookup binding activity, % of wild type for anti-PD-1 antibody 2 HC Ser71Cys (antibody, human IgG4 S228P, kappa, V domains shown, arm on Cys71 as named in each row) VH: QVQLVESGGGVVQPGRSLRLDCKASGITFSNSGMHWVRQAPGKGLEWVAVIWYDGSKRYYADSVKGRFTICRDNSKNTLFLQMNSLRAEDTAVYYCATNDDYWGQGTLVTVSS VL: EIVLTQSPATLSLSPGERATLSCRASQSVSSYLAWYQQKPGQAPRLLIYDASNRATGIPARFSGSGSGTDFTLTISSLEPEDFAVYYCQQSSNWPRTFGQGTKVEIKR
**Result** 56.9
